Tested on: SF-539
Measurement Notes: NCI tumour cell line growth inhibition, 48 h
The source made the active and inactive calls. Cut-off read from the data, not from the text of the source: active = GI50 up to about 1.1 µM and inactive = higher. Where a SMILES comes first, the peptide text is derived from it. [ ]: non-standard residue; d: D form. 2Nal = N[CH](Cc1ccc2ccccc2c1)C(=O)O
Outcomes: T = active, F = inactive

| Compound | Cat |
| --- | --- |
| COc1cc(CNc2nc3ccccc3nc2C(=O)O)cc(OC)c1OC | F |
| CC(NC(=O)C(N)Cc1ccccc1)C(=O)NC(Cc1ccc(O)cc1)C(=O)NC(Cc1c[nH]c2ccccc12)C(=O)NC(CCCCN)C(=O)NC(C(=O)NC(C)C(=O)NC(Cc1ccc2ccccc2c1)C(N)=O)C(C)C (stereo not drawn) (H-FAYWKVA[2Nal]-NH2; configuration not given here) | F |
| Cc1ccc(/C=N/Nc2ccc3ccccc3n2)s1 | F |
| COc1ccc(/C=C/c2cc(OC)cc(OC)c2)cc1 [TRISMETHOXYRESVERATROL] | F |
| NC(CCC(=O)NC(CSC(=O)N(O)c1ccc(Cl)cc1)C(=O)NCC(=O)O)C(=O)O (stereo not drawn) | T |
| CCCCCC(=O)CCCCCCCC(O)CC(=O)OCC (stereo not drawn) | F |
| CCCCN(CC)C(=O)C(=O)Cc1nc2ccc(C(=O)c3ccccc3)cc2nc1O | F |
| Cn1c(=O)c2nc(CCCCc3nc4c(=O)n(C)c(=S)n(C)c4[nH]3)[nH]c2n(C)c1=S | F |

----------
System: HOP-92
Measurement Notes: NCI tumour cell line growth inhibition, 48 h
The source made the active and inactive calls. Rule as the data show it: active = GI50 up to about 1.1 µM and inactive = higher.
The following compounds are shown together with reported GI50 values.

| Compound | GI50 |
| --- | --- |
| COc1cc(C(=O)O[C@@H]2[C@@H](OC(=O)c3cc(OC)c(OC)c(OC)c3)[C@@H](OC)O[C@@H]3CO[C@@H](c4ccccc4)O[C@@H]23)cc(OC)c1OC | > 100 µM (inactive) |
| CC[C@]1(Cc2ccc(OC)c(OC)c2)C=[N+]([O-])O[C@H](OC2CCCCC2c2ccccc2)[C@@H]1OC(C)=O (some centres undefined) | 57.7 µM (inactive) |
| COc1cc2[nH]c3c(c2cc1OC)CCN[C@]31CC[C@]2(CC3c4c(cc(OC)c(O)c42)CCN3C)C[C@H]1OC (some centres undefined) | 25.8 µM (inactive) |
| CCN(CC)CCn1ncc2c(N)ncnc21 | > 100 µM (inactive) |

----------
Tested on: UACC-62
Measurement Notes: NCI tumour cell line growth inhibition, 48 h
Calls of active or inactive are those of the source. Cut-off read from the data, not from the text of the source: active = GI50 up to about 1.1 µM and inactive = higher.
Outcome Measure: GI50

| Molecule | Test Value |
| --- | --- |
| N#CC1=C(C#N)/C(=C(\C#N)C(C#N)C#N)N=C1N | 15.1 µM (inactive) |
| COc1c(OC)c(OC)c(C(=O)/C=C/c2ccccc2)c(OC)c1OC | 6.87 µM (inactive) |
| O=C1CCC(=O)C1=NNc1cc(Cl)cc(Cl)c1 | > 100 µM (inactive) |
| CCOC(=O)C(Cc1ccccc1)NC(=O)c1ccc(/N=N/N(C)C)cc1 (stereo unspecified) | > 100 µM (inactive) |
| COC(=O)C1=CCC2c3[nH]c4ccccc4c3CCN2C1 (stereo unspecified) | > 354 µM (inactive) |
| Cc1ccc(/C=N/Nc2ccc3ccccc3n2)s1 | 34.8 µM (inactive) |
| COP(=O)(OC)/C(=C/c1cn(C(c2ccccc2)(c2ccccc2)c2ccccc2)cn1)NC=O | 18.7 µM (inactive) |
| CN(C)CCCNc1ccc([N+](=O)[O-])c2nc3ccccc3c(N)c12 | 1.25 µM (inactive) |
| COc1ccc(C(=O)N/N=C2\C(=O)c3c(C)cc(C)cc3CC2(C)C)cc1 | 15.1 µM (inactive) |
| CCN(CC)CC(=O)Nc1ccc2c(c1)C(=O)c1ccc(NC(=O)CN(CC)CC)cc1C2=O | 73.8 µM (inactive) |
| CN1c2ccccc2N(C(=O)c2ccccc2)C(CC(=O)O)c2cccn21 (stereo unspecified) | 55.3 µM (inactive) |

----------
The following molecules are shown together with reported GI50 values.
Tested on: PC-3
Measurement Notes: NCI tumour cell line growth inhibition, 48 h
Activity calls are given as the source filed them. Rule as the data show it: active = GI50 up to about 1.1 µM and inactive = higher.

| Molecule | GI50 |
| --- | --- |
| N#Cc1nc(-c2ccsc2)oc1N | > 100 µM (inactive) |
| O=[Se](O)O | 1.1 µM (active) |
| COc1ccc2c(c1)O[C@@H]1C(O)Oc3cc(OC)c(OC)cc3[C@]1(O)C2=O (some centres not stated) | 59.6 µM (inactive) |
| CC(NS(C)(=O)=O)c1ccccc1 (configuration not stated) | > 100 µM (inactive) |
| COC(=O)C1CCC(=O)N1C(c1ccccc1)c1cc(OC)c(OC)c(OC)c1 (configuration not stated) | 51.3 µM (inactive) |
| COc1cccc2c1C(=O)c1c(O)c3c(c(O)c1C2=O)C[C@@](O)(C(C)=O)CC3OC1CC(OC2CC(N)C(O)C(C)O2)C(O)C(C)O1 (some centres not stated) | 48.6 µM (inactive) |
| O=Cc1cc2c(o1)C(=O)c1ccccc1C2=O | 2.53 µM (inactive) |
| COC1=C(C)C(=O)C2=C(C1=O)C1C3CC4=C(C(=O)C(OC)=C(C)C4=O)C(CNC(=O)C(C)O)N3C(C#N)C(C2)N1C (configuration not stated) | < 0.011 µM (active) |
| OCCN=C1c2ccccc2C2C(c3ccccc31)C1c3ccccc3C(=NCCO)c3ccccc3C21 (configuration not stated) | 17.2 µM (inactive) |
| CC[C@]1(Cc2ccc(OC)c(OC)c2)C=[N+]([O-])O[C@H](OC2CCCCC2c2ccccc2)[C@@H]1OC(C)=O (some centres not stated) | 31.8 µM (inactive) |
| CCOc1snc(C(Cl)(Cl)Cl)c1Cl | 28.4 µM (inactive) |
| CCN1CCC(O)(/C=C/c2cccc(C)c2)C(C(=O)/C=C/c2cccc(C)c2)C1 (configuration not stated) | 13.3 µM (inactive) |
| COC(=O)C1([C@@H]2C[C@@H](O)[C@]3(C)CC/C=C(\C)CCC[C@H](C)[C@H](O)[C@@H]2O3)CC1 | 31.8 µM (inactive) |
| Cc1cccc2nc3cccc(C(=O)NCCC[N+](C)(CCCNC(=O)c4cccc5nc6cccc(C)c6nc45)Cc4c([N+](=O)[O-])ncn4C)c3nc12 | 1.46 µM (inactive) |
| CNC1C(O)CC(OC2C/C=C(\C)C/C(C)=C/C=C/CCC(C)CNC(=O)/C=C/C=C/C2C)OC1C (configuration not stated) | 1.06 µM (active) |
| CN(C)CCNc1ccc2c(=O)n(CCN(C)C)c(=O)n3c4ccc(O)cc4c(=O)c1c23 | < 0.0491 µM (active) |
| COC(=O)CN1Cc2cc(C)cc(c2O)CN(CC(=O)OC)Cc2cc(C)cc(c2O)CN(CC(=O)OC)Cc2cc(C)cc(c2O)C1 | > 32.9 µM (inactive) |
| O=C1CSc2nc3ccccc3n2/C=N\N1 | > 100 µM (inactive) |
| Cc1sc2nc(-c3cc([N+](=O)[O-])c(Cl)cc3Cl)c(/C=N/NC(=N)N)n2c1C | 5.69 µM (inactive) |
| O=C(NCCNCCNC(=O)C(F)(F)F)C(F)(F)F | > 100 µM (inactive) |
| [O-]/[N+](=N\c1ccccc1CO)c1ccccc1CO | > 100 µM (inactive) |
| CCN(CC)CCCn1c(=O)c2ccccc2n2c3c(=O)n(C)c(=O)n(C)c3nc12 | 8.39 µM (inactive) |
| CCC(C)NC(=S)N/N=C(\C)c1ccccn1 (configuration not stated) | < 0.01 µM (active) |
| CC1=CC(C)(C)[C@H]2O[C@@]3(O)C[C@]4(C)[C@H]5C[C@@](C(C)C)(O[C@H]4c4ccoc4)O[C@H]4[C@]5(C3)O[C@@]1(O)[C@]24O | > 100 µM (inactive) |
| C=C(C)C1CC2=C(O1)C(=O)c1cccc(O)c1C2=O (configuration not stated) | 1.69 µM (inactive) |
| COP(=O)(OC)/C(=C/c1cn(C(c2ccccc2)(c2ccccc2)c2ccccc2)cn1)NC=O | 17 µM (inactive) |
| COc1cc(C(=O)O[C@@H]2[C@@H](OC(=O)c3cc(OC)c(OC)c(OC)c3)[C@@H](OC)O[C@@H]3CO[C@@H](c4ccccc4)O[C@@H]23)cc(OC)c1OC | > 100 µM (inactive) |
| O=CC(O)C(O)C1OC(=O)c2cc(O)c(O)c(O)c2C2=C(O)C(O)=C3OC(=O)c4c(c(O)c(O)c5c4C3C2C(=O)O5)-c2c(cc(O)c(O)c2O)C(=O)OCC1O (configuration not stated) | 43.7 µM (inactive) |
| O=C1NC(=O)[C@@H](OCC2CCCCC2)[C@@H]2OCC3OC(C(O)C3O)C12 (some centres not stated) | > 100 µM (inactive) |
| CC1=NNC(=O)C1C1(C(=O)O)CC(c2c[nH]c3ccccc23)=NC(=S)N1 (configuration not stated) | 27.5 µM (inactive) |
| CNC(=O)OCc1c(COC(=O)NC)c(-c2ccc(Cl)c(Cl)c2)n2c1SCC2 | 17.1 µM (inactive) |
| Cc1nc(-n2nc(-c3ccccc3)cc2-c2ccccc2)sc1C(/C=C\c1ccc([N+](=O)[O-])cc1)=N/NC(=S)NN | 28.2 µM (inactive) |
| Cc1ccc(-c2cc(-c3ccco3)c(C#N)c(=S)[nH]2)cc1 | 28.3 µM (inactive) |
| N#CC1=C(C#N)/C(=C(\C#N)C(C#N)C#N)N=C1N | 28.7 µM (inactive) |
| Clc1cc2c(c(CSC3=NCN(CC4CC4)CN3)c1)OCOC2 | 23 µM (inactive) |
| N#Cc1c(-c2ccc(Cl)cc2Cl)nc2[nH]nc(S)n2c1=O | > 100 µM (inactive) |
| CN(C)c1ccc(/C=N/NC(=O)c2cnc3ccccc3c2)cc1 | > 100 µM (inactive) |
